Target or system: UniProtKB Q92731
Assay comment: Estrogen ERβ competitive radioligand binding with [3H]estradiol
Parameters: made in house; host or cells: insect Sf9 cells
Condition: second of three separate radioligand binding studies; read-out: Receptor Binding ERβ IC50
Experimental: IC50 values were determined by non-linear least squares regression analysis. […] The Hill coefficient (nH) defines the slope of the competitive binding curve and was determined using MathIQ™ (ID Business Solutions Ltd., UK). Estrogen ERβ • Source: Human recombinant insect Sf9 cells
Sequence (Q92731 264-498 limits assumed): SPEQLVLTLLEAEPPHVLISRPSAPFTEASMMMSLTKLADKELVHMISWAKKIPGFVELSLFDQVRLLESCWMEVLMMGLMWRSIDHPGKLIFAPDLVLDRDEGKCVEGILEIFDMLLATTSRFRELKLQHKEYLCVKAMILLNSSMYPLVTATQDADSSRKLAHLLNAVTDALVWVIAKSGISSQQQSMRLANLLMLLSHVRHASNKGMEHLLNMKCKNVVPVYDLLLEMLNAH
Endpoint: IC50

compound="CCN(CC)CCOc1ccc(/C(=C(/Cl)c2ccccc2)c2ccc(O)cc2)cc1 [4-OH-enclomiphene, (E)-4-OH-Clomiphene]" target_or_system="UniProtKB Q92731" reported="0.41 nM"

====

Catalogue of ERβ Coactivator Response Ant (antagonist) readings, one per entry.
Target or system: ERβ (Homo sapiens, UniProt Q92731)
Assay comment: ERβ coactivator response
Assay type: biochemical
Parameters: concentration or dose not given beside the values
Condition: first of two separate studies
Sequence (Q92731 whole entry): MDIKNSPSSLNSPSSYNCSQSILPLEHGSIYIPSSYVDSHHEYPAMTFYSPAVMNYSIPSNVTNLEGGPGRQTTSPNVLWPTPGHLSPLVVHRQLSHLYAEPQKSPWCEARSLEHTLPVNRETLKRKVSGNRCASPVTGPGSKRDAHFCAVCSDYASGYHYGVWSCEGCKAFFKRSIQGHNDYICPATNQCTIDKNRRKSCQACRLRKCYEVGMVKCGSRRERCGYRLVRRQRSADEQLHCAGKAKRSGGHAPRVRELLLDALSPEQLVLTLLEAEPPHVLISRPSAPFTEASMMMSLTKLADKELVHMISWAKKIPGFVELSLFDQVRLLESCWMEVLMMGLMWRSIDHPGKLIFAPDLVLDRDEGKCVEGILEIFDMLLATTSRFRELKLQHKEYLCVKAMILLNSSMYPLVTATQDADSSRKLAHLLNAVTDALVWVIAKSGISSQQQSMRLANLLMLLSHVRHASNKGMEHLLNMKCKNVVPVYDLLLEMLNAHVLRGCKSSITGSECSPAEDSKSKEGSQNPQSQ
Endpoint: ERβ Coactivator Response Ant (antagonist) (%)

compound="CC[N+]([O-])(CC)CCOc1ccc(/C(=C(/Cl)c2ccccc2)c2ccccc2)cc1 [Enclomiphene-NO, (E)-Clomiphene-NO]" target_or_system="ERβ (Homo sapiens, UniProt Q92731)" units_of_measure=% reported=95
compound="CCN(CC)CCOc1ccc(/C(=C(/Cl)c2ccccc2)c2ccc(O)cc2)cc1 [4-OH-enclomiphene, (E)-4-OH-Clomiphene]" target_or_system="ERβ (Homo sapiens, UniProt Q92731)" units_of_measure=% reported=60
compound="NCCOc1ccc(/C(=C(/Cl)c2ccccc2)c2ccccc2)cc1 [Di-de-ethyl-enclomiphene, (E)-di-desethyl Clomiphene]" target_or_system="ERβ (Homo sapiens, UniProt Q92731)" units_of_measure=% reported=87
compound="CCN(CC)CCOc1ccc(/C(=C(/Cl)c2ccccc2)c2ccccc2)cc1 [Enclomiphene, trans-clomiphene]" target_or_system="ERβ (Homo sapiens, UniProt Q92731)" units_of_measure=% reported=65

====

Target or system: ERβ (Homo sapiens)
Assay comment: Estrogen ERβ competitive radioligand binding with [3H]estradiol
Parameters: made in house; host or cells: insect Sf9 cells
Condition: ERβ, hum; additional data; read-out: IC50
Endpoint: IC50 (nM)

molecule="CCN(CC)CCOc1ccc(/C(=C(/Cl)c2ccccc2)c2ccc(O)cc2)cc1 [4-OH-enclomiphene, (E)-4-OH-Clomiphene]" endpoint=IC50 units_of_measure=nM reported=0.57

====

Target or system: ERβ (Homo sapiens, UniProt Q92731)
Assay comment: Estrogen ERβ competitive radioligand binding with [3H]estradiol
Design: made in house; host or cells: insect Sf9 cells
Condition: first of three separate radioligand binding studies; read-out: Receptor Binding ERβ IC50
Method: IC50 values were determined by non-linear least squares regression analysis. […] The Hill coefficient (nH) defines the slope of the competitive binding curve and was determined using MathIQ™ (ID Business Solutions Ltd., UK). Estrogen ERβ • Source: Human recombinant insect Sf9 cells
pIC50: −log10 of the molar value.
Endpoint: pIC50

molecule="CCN(CC)CCOc1ccc(/C(=C(/Cl)c2ccccc2)c2ccc(O)cc2)cc1 [4-OH-enclomiphene, (E)-4-OH-Clomiphene]" reported=9.24

Values from patent US20190008804A1
